# testMethodNotes: NCI Yeast Anticancer Drug Screen. Data for the bub3 strain (AID 167)
# studyConditions: S. cerevisiae bub3 mutant strain, at 50.0 µM, stronger effect = higher value
The panel holds about 79,000 compounds, 15% with a hit somewhere; the sample as a whole holds those more often.
metric: growth inhibition (%)
Please give a number only; it is taken to be in %.

In plain terms, `CC(=O)Nc1ccc(S(=O)(=O)N=S(c2ccccc2)c2ccccc2)cc1` has a documented growth inhibition of -7.2

Record COc1ccc(C2C/C(=N/O)c3ccccc3O2)cc1 (stereo not drawn) , field growth inhibition: -7.75

According to the records, this molecule CCC(O)(c1ccccc1)C(OC)c1ccccc1 (stereo not drawn) displays growth inhibition of -0.35

growth inhibition reported for this molecule N#CC(CC(=O)c1ccccc1)c1ccc(Cl)cc1 (stereo not drawn) : 41.4

So for `CC(=O)Nc1cccc(Cl)c1` , the logged growth inhibition turned out to be -1.45

GET /value?item= CCN(CC)CCC1CC/C(=C\c2ccc(OC)cc2)C1=O (stereo not drawn) &field=growth inhibition returns -2.45

# molecule `Oc1cc(O)cc(/C=C/c2ccc(O)c(O)c2)c1` ; its growth inhibition = 18.4

The recorded growth inhibition for entry `CN1CCN(C(=O)NC(C)(C)C)CC1` equals -1.9

Recorded result, COCC1C(COC)C2CCC1C2(Cc1ccccc1)Cc1ccccc1 (stereo not drawn) , growth inhibition: 0

According to the records, this molecule `Cc1ccc(Sc2cc([N+](=O)[O-])cc(Sc3ccc(C)cc3)c2Sc2ccc(C)cc2)cc1` displays growth inhibition of 1.35

Reported growth inhibition of CCOC1=C2C(C)(CCC3[C@@]4(C)C=CC(=O)C(C)(C)C4CC(O)[C@@]23C)C(c2ccoc2)C1=O (stereo partly drawn) : 20.1

The molecule `O=C(O)/C(=C/c1ccccc1[N+](=O)[O-])c1ccccc1` showed growth inhibition equal to -8.85

In plain terms, `COc1ccccc1-c1nc2ccccc2c(=O)[nH]1` has a documented growth inhibition of 6.4

// `CCCCC1(NN=C2CCCCC2)C(=O)N(c2ccccc2)N(c2ccccc2)C1=O` : growth inhibition value = -7.4

O=c1nc(Nc2ccccc2)ccn1C1OC(CO)C(O)C1O (stereo not drawn) has a reported growth inhibition of 7.55

Lookup result for `CCCCOC(=O)C1=NNC(=O)C1` ; measured growth inhibition: -12.3

Just so you know, measured growth inhibition for `COc1ccc(C=Nc2ccc3c(c2)OCO3)cc1Br` came out at 9.4

According to the records, this molecule COc1cc2cc3c(c(O)c2c(O)c1/C=C/C(C)C)C(=O)CC(C)(OC(C)=O)C3 (stereo not drawn) displays growth inhibition of 18.8

`CC(=O)C(CCC#N)(CCC#N)C(=O)Nc1ccccc1` has a reported growth inhibition of -2.05

Consider CC(C)(C)c1cc(C(=O)O)c2c(c1)C(=O)OC2(c1ccccc1)c1ccccc1C(=O)O (stereo not drawn) . Its measured growth inhibition is 8.75

// growth inhibition lookup, molecule = CC(C)CC(C)Cc1ccncc1 (stereo not drawn) , result: -1.65

Input `CC(C)=CCC(C)C` . Output growth inhibition: -12.6

Input `Cc1cc(OCCOc2ccc(N)cc2)ccc1N1C(N)=NC(N)=NC1(C)C` . Output growth inhibition: 1.45

Per the records, this molecule ( `CC1=C(C(=O)Nc2ccccc2)C(c2ccc(C3C(C(=O)Nc4ccccc4)=C(C)NC(C)=C3C(=O)Nc3ccccc3)cc2)C(C(=O)Nc2ccccc2)=C(C)N1` ) has growth inhibition equal to 82.5

Looking up `O=C(Nc1ccc(Br)cn1)c1sc2ccccc2c1Cl` , I see its growth inhibition listed as 16.4

Sure, the documented growth inhibition for C[N+](C)(C)C12CCCC1S(=O)(=O)C2 (stereo not drawn) is -7.45

The measured growth inhibition associated with `CCCCOCCC1CCNCC1` reads -48

Lab note: measured growth inhibition of `O=C(O)c1c(I)cc(I)c(O)c1I` was 10.9

Recorded result, `COc1cc2c(cc1OCc1ccccc1)NC(=O)C2` , growth inhibition: -18.9

The recorded growth inhibition for entry `CC(C)N(C(=O)c1cccc(C(=O)N(C(C)C)C(C)C)c1)C(C)C` equals 16.9

So for `O=C(c1ccccc1)c1ccc2ccccc2c1C(=O)O` , the logged growth inhibition turned out to be -5.65

The reported value for CCOC(=O)N1N=C(c2ccccc2)OC2(N3CCOCC3)CCC(C(C)(C)C)CC12 (stereo not drawn) in terms of growth inhibition is -3

Briefly, growth inhibition measured for `Cc1ccc(N(C)C)cc1` : -0.45

COc1ccc(N2C(=O)C3c4[nH]c5ccc(F)cc5c4C4CCC(C(C)(C)C)CC4C3C2=O)cc1 (stereo not drawn) yielded growth inhibition of -3.2

Record `C=CCN(CC=C)P(=O)(N(CC=C)CC=C)N(CC=C)CC=C` . Reported growth inhibition: 17.6

The value of growth inhibition measured for the molecule `Nc1ccc(S(=O)(=O)OCCOc2ccccc2)cc1` turned out to be 18.7

Record CCOC(=O)CNC(=O)C(Cc1ccccc1)NC(=O)c1ccccc1NC(=O)c1ccccc1 (stereo not drawn) , field growth inhibition: 0.7

Field growth inhibition (entry `c1ccc(-c2coc(-c3ccccc3)n2)cc1` ) reads -5.15

Entry `Cc1ccc2sc3cc(=O)cc(C)c-3nc2c1` ; growth inhibition = 38.4

growth inhibition for OCCCCC1COC(c2ccccc2)O1 (stereo not drawn) is -16.6

Entry `Nc1nc(N)nc(-c2ccc([N+](=O)[O-])o2)n1` — recorded growth inhibition = 12.2

Reported growth inhibition ( OCC(O)C(O)C(O)c1nn(-c2ccccc2)c2nc3ccc(Cl)cc3nc12 (stereo not drawn) ) = 9.25

Given item `CC(C)(C)C(=O)/C=C(\OB(F)F)C(C)(C)C` , the value recorded as its growth inhibition is -15.8

The molecule identified as `CCOc1ccc2nc(/C=C/c3ccccc3)ccc2c1` registered its growth inhibition at 9.85

Documented growth inhibition of `CCOC(=O)Cc1cccnc1N` : 1

The reported value for Cc1ccc(NC(=O)OCC(COc2ccc(Cl)cc2Cl)OC(=O)Nc2ccc(C)cc2)cc1 (stereo not drawn) in terms of growth inhibition is 11.2

According to the records, this molecule COC(=O)C(C(=O)C(=O)Nc1ccccc1C(C)=O)c1nc2ccc(Cl)cc2[nH]c1=O (stereo not drawn) displays growth inhibition of -19.3

Per the record, `OCc1cc2ccc3ccccc3c2[nH]1` has growth inhibition of 25.5
